MLR listing for selected compounds.
# Tested on: T cell response (mixed lymphocyte reaction)
# assay_summary: Mixed lymphocyte reaction (MLR) assay
# Type: cell-based, C57B1/6 mice and DBA/2 mice
# experimental_conditions: at 10^-9 - 10^-5 M

# example entries with known answers
(Q) Quick check: MLR on T cell response (mixed lymphocyte reaction), item CNc1ncnc2c1ncn2CCCCCO [Compound #3a, N-(6-N-Methyl-Aminopurin-9-yl)-pentanol] ?
(A) 1.5 - 2.9 ×

(Q) Further, for N=C(N)NCCC[C@H](NC(=O)OCCCCCn1cnc2c(N)ncnc21)C(=O)O [Compound #6, Aminopurinyl Pentoxycarbonyl L-Arginine] ?
(A) 1.5 - 3 ×

(Q) Further, for N=C(N)NCCC[C@H](NC(=O)OCCCCCn1cnc2c(NN)ncnc21)C(=O)O [Compound #8] ?
(A) 1.5 - 2 ×

Read the next record carefully.
(Q) Quick check: MLR on T cell response (mixed lymphocyte reaction), item OCCCCCn1cnc2c(Cl)ncnc21 [Compound #III, N-(6-Chloropurin-9-yl)-5-pentanol] ?
(A) 1.5 - 2.5 ×

* * *

# Tested on: T cell response (mixed lymphocyte reaction)
# assay_summary: Mixed lymphocyte reaction (MLR) assay
# Format: cell-based, C57B1/6 mice and DBA/2 mice
# experimental_conditions: at 10^-9 - 10^-5 M
MLR listing for selected molecules.

(Q) Reported MLR, molecule CNc1ncnc2c1ncn2CCCCCOC(=O)N[C@H](CCCNC(=N)N)C(=O)O : ____
(A) 1.5 ×

(Q) Further, for OCCCCCn1cnc2c(S)ncnc21 ?
(A) 2 - 2.4 ×

---
(Q) Reported MLR, molecule CSc1ncnc2c1ncn2CCCCCO : ____
(A) 1.7 - 2 ×

(Q) Further, for CN(C)c1ncnc2c1ncn2CCCCCOC(=O)N[C@H](CCCNC(=N)N)C(=O)O ?
(A) 1.5 - 4 ×

* * *

# System: cytotoxic T lymphocytes, P815 target cells
# assay_summary: Cytotoxic T lymphocytes (CTL) assay
# Assay type: cell-based, C57B1/6 mice and DBA/2 mice
# experimental_conditions: Mus musculus, P815, 120 h; at 10^-7 M; read-out: CTL activity, % increase compared to IL2 (100%)
activation at 0.1 µM listing for selected compounds.

# example entries with known answers
(Q) Reported activation at 0.1 µM, compound CSc1ncnc2c1ncn2CCCCCO : ____
(A) 20 to 40%

(Q) Further, for N=C(N)NCCC[C@@H](NC(=O)OCCCCCn1cnc2c(=O)[nH]cnc21)C(=O)O ?
(A) 40 to 60%

(Q) Further, for COc1ncnc2c1ncn2CCCCCO ?
(A) 40 to 60%

(Q) Further, for CN(C)c1ncnc2c1ncn2CCCCCO ?
(A) 60 to 80%

(Q) Further, for N=C(N)NCCC[C@@H](NC(=O)OCCCCCn1cnc2c(N)ncnc21)C(=O)O ?
(A) 20 to 40%

Read the next record carefully.
(Q) Reported activation at 0.1 µM, compound OCCCCCn1cnc2c(Cl)ncnc21 : ____
(A) 60 to 80%
